Here, each record is paired with measured IC50 data.
# assayed system: K-Ras G13C (Homo sapiens (Human), UniProt P01116+P62937, G13C)
# Sequence (P01116-2 other isoform, or with tags, fused parts or gaps G13C): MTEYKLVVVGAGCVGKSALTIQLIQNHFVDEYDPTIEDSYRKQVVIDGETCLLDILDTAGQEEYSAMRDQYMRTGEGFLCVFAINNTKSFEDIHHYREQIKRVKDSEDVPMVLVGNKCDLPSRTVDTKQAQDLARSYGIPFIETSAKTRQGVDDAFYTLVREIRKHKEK
# Sequence (P62937 whole entry): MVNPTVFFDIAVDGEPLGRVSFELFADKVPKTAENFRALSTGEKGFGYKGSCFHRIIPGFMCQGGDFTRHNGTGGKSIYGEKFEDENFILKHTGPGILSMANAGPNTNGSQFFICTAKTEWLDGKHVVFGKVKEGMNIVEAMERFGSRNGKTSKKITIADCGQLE
# assay explanation: Ras-Raf (BRAF RBD) disruption / FRET / MOA assay, KRAS G13C
# Type: biochemical
# stated conditions: KRAS G13C; Ras-Raf disruption/FRET/MOA assay; read-out: IC50* KRAS G13C FRET data

In the examples that follow, each entry is paired with its recorded IC50.
{"compound": "C=CC(=O)N1CC[C@H](C(=O)N2CCCCC[C@H]2C(=O)N[C@H]2Cc3cccc(c3)-c3ccc4c(c3)c(c(-c3cccnc3[C@H](C)OC)n4CC)CC(C)(C)COC(=O)[C@@H]3CCCN(N3)C2=O)C1 (atropisomer, axis not shown)", "IC50": "1 to 10 µM"}
{"compound": "C=CC(=O)N1C[C@@H](C)N(C(=O)N(C)[C@H](C(=O)N[C@H]2Cc3nc(cs3)-c3ccc4c(c3)c(c(-c3cccnc3[C@H](C)OC)n4CC)CC(C)(C)COC(=O)[C@@H]3CCCN(N3)C2=O)C(C)C)[C@@H](C)C1 (atropisomer, axis not shown)", "IC50": "0.1 to 1 µM"}
{"compound": "CCn1c(-c2cccnc2[C@H](C)OC)c2c3cc(ccc31)-c1csc(n1)C[C@H](NC(=O)CCO[C@H]1CCN(C(=O)C#CC(C)(C)N3CCC3)C1)C(=O)N1CCC[C@H](N1)C(=O)OCC(C)(C)C2 (atropisomer, axis not shown)", "IC50": "1 to 10 µM"}

Exam item: Fill in IC50 for C=CC(=O)N1C[C@@H](C)N(C(=O)N(C)[C@H](C(=O)N[C@H]2Cc3nc(cs3)-c3ccc4c(c3)c(c(-c3cccnc3[C@H](C)OC)n4CC)CC(C)(C)COC(=O)[C@@H]3CCCN(N3)C2=O)C(C)C)C[C@H]1C (atropisomer, axis not shown) tested with K-Ras G13C (Homo sapiens (Human), UniProt P01116+P62937, G13C).
Marked response: 0.1 to 1 µM
